Reference source for all entries: ChEMBL document CHEMBL4680100

Please provide measured pIC50 for the entries that follow.
molecular target: Androgen receptor (Homo sapiens, UniProt P10275)
Sequence (P10275 whole entry): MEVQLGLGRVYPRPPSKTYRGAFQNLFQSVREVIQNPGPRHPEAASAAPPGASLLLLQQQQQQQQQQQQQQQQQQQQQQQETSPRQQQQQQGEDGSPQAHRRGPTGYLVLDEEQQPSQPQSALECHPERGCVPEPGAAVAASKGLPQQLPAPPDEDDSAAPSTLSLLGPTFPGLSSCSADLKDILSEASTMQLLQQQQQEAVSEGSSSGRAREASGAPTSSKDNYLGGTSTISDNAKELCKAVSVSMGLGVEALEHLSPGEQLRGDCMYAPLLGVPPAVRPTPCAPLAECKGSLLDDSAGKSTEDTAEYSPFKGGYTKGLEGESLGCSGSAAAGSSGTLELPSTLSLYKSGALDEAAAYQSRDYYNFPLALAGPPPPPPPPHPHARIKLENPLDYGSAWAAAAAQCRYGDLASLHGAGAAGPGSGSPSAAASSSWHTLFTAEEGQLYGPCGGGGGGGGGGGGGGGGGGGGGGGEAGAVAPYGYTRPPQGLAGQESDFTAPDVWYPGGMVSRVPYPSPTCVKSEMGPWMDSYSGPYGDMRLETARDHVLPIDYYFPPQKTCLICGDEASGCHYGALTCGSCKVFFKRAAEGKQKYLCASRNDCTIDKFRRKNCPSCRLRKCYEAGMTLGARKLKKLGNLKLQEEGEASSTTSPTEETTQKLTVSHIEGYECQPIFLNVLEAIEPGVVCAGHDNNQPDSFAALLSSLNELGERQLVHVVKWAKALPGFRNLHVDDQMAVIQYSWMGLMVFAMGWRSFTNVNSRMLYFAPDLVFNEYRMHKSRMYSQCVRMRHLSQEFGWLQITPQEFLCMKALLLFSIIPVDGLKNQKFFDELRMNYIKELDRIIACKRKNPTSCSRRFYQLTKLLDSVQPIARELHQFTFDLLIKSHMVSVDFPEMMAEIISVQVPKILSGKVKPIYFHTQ
Answers are plain numbers, as −log10 of the molar value.

// worked examples, pIC50 included
CC1(C)NC(=O)N(c2ccnc3ccccc23)C1=O :: 5.89
CC1(C)C(=O)NC(=O)N1c1ccc(F)c(C(F)(F)F)c1 :: 5.55
CC1(C)CN(c2ccc(F)c(C(F)(F)F)c2)C(=O)N1 :: 5.09
CC1(C)NC(=O)N(c2cccc(C(F)(F)F)c2)C1=O :: 5.22
CC1(C)NC(=O)N(c2ccncc2)C1=O :: 5.42

Give pIC50 for all compounds that follow.
1. O=C1CNC(=O)N1c1ccc(F)c(C(F)(F)F)c1
2. CC1(C)C(=O)N(c2ccc(F)c(C(F)(F)F)c2)C(=O)N1CC#N
3. CN(C)C(=O)c1cc(N2C(=O)NC(C)(C)C2=O)ccc1F
4. CC1(C)NC(=O)N(c2ccc(F)c(C#N)c2)C1=O

1. 6.59
2. 6.54
3. 5.04
4. 5.43
